// values below are reported Degree of inhibition of mushroom tyrosinase
# Test system: mushroom-derived tyrosinase
# Protocol Description: Mushroom tyrosinase inhibition test
# Assay type: biochemical
# Condition Summary: 25 ppm, L-tyrosine substrate, 37° C. 30 minutes
Metric: Degree of inhibition of mushroom tyrosinase (%)

compound="CC1=C(CCC(C)CC(=O)O)C2(C)CCCC(C)(C)C2CC1 (stereo not shown)" recorded_measurement=0
compound="CC1=CCC2C(C)(C)CCCC2(C)C1CCC(C)CC(=O)O (stereo not shown)" recorded_measurement=0
compound="C=C1CCC2C(C)(C)CCCC2(C)C1CCC(C)CC(=O)O (stereo not shown)" recorded_measurement=0
compound="O=c1cc(CO)occ1O [Kojic acid, reference compound]" recorded_measurement=67

The reported measurements were obtained from patent US6384074B1.
